- TEST SYSTEM: UniProt:P22303
- Sequence (P22303 whole entry): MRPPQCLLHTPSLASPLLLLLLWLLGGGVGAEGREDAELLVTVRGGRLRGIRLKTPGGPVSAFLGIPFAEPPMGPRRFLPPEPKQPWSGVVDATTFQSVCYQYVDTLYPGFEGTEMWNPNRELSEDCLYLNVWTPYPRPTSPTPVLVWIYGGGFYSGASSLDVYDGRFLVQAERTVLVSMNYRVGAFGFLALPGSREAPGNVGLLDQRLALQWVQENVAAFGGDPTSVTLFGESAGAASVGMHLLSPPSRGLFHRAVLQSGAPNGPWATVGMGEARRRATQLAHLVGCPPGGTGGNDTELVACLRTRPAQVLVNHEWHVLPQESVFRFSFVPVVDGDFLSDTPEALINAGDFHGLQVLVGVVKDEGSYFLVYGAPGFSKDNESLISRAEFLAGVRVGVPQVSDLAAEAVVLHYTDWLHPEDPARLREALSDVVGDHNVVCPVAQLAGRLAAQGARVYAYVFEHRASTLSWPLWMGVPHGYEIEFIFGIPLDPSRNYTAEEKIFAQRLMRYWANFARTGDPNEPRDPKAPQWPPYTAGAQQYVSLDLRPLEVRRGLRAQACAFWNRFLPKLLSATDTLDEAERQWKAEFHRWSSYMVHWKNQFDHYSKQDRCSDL
- EXPERIMENT NOTES: Concentration required to inhibit Acetylcholinesterase
MEASURED ATTRIBUTE: IC50

> print(dat)
                    structure.smiles.string  observed.result
1  CC(C)c1ccc(NC(=O)N2CCC[C@H]2C(=O)N2CC[C@H]3[C@H]2[C@H](C)C(=O)N3c2nc3ccccc3s2)cc1         > 100 µM

----------
- EXPERIMENT NOTES: Compound was tested for its stability in human plasma
- Type: ADME, organism-based
MEASURED ATTRIBUTE: half-life (h)

> print(dat)
                                    molecule  measured.attribute  lt.gt.eq  observed.result
 1  CC(C)c1ccc(NC(=O)N2CCC[C@H]2C(=O)N2CC[C@H]3[C@H]2[C@H](C)C(=O)N3c2nc3ccccc3s2)cc1           half-life         >               24
 2  CC(C)c1ccc(NC(=O)N2CCC[C@H]2C(=O)N2CC[C@H]3[C@H]2[C@H](C)C(=O)N3c2nc3ccc(OC(F)(F)F)cc3s2)cc1           half-life         =               11
 3  CC(C)c1ccc(NC(=O)N2CCC[C@H]2C(=O)N2CC[C@H]3[C@H]2[C@H](C)C(=O)N3c2nccs2)cc1           half-life         >               24
 4  CCOC(=O)c1ccc2nc(N3C(=O)[C@@H](C)[C@@H]4[C@@H]3CCN4C(=O)[C@@H]3CCCN3C(=O)Nc3ccc(C(C)C)cc3)sc2c1           half-life         =                9
 5  CC(C)c1ccc(NC(=O)N2CCC[C@H]2C(=O)N2CC[C@H]3[C@H]2[C@H](C)C(=O)N3c2nc3cccnc3s2)cc1           half-life         =                8
 6  CC(C)c1ccc(NC(=O)N2CCC[C@H]2C(=O)N2CC[C@H]3[C@H]2[C@H](C)C(=O)N3c2ccc([N+](=O)[O-])cc2)cc1           half-life         >               24
 7  CC(C)c1ccc(NC(=O)N2CCC[C@H]2C(=O)N2CC[C@H]3[C@H]2[C@H](C)C(=O)N3C(=O)[C@@H]2[C@H](C)[C@@H]2C)cc1           half-life         =                6
 8  CC(C)c1ccc(NC(=O)N2CCC[C@H]2C(=O)N2CC[C@H]3[C@H]2[C@H](C)C(=O)N3C(=O)C2[C@@H](C)[C@H]2C)cc1 (stereo not given in full)           half-life         =              1.5
 9  COc1ccc2nc(N3C(=O)[C@@H](C)[C@@H]4[C@@H]3CCN4C(=O)[C@@H]3CCCN3C(=O)Nc3ccc(C(C)C)cc3)sc2n1           half-life         =                9
10  CC(C)c1ccc(NC(=O)N2CCC[C@H]2C(=O)N2CC[C@H]3[C@H]2[C@H](C)C(=O)N3c2nc3ccc(CO)cc3s2)cc1           half-life         >               20
11  CC(C)c1ccc(NC(=O)N2CCC[C@H]2C(=O)N2CC[C@H]3[C@H]2[C@H](C)C(=O)N3C(=O)C2CC2)cc1           half-life         =              0.5
12  CC(C)c1ccc(NC(=O)N2CCC[C@H]2C(=O)N2CC[C@H]3[C@H]2[C@H](C)C(=O)N3C(=O)C2C(C)(C)C2(C)C)cc1           half-life         =               16
13  CC(C)c1ccc(NC(=O)N2CCC[C@H]2C(=O)N2CC[C@H]3[C@H]2[C@H](C)C(=O)N3c2nc3ccc(F)cc3s2)cc1           half-life         >               24
14  COc1ccc(C)c2sc(N3C(=O)[C@@H](C)[C@@H]4[C@@H]3CCN4C(=O)[C@@H]3CCCN3C(=O)Nc3ccc(C(C)C)cc3)nc12           half-life         >               24
15  CC(C)c1ccc(NC(=O)N2CCC[C@H]2C(=O)N2CC[C@H]3[C@H]2[C@H](C)C(=O)N3c2nc3ccc([N+](=O)[O-])cc3s2)cc1           half-life         =               24

----------
- Tested on: Human betaherpesvirus 5
- EXPERIMENT NOTES: Concentration required to inhibit human cytomegalovirus HCMV-AD169 in ELISA assay
MEASURED ATTRIBUTE: log10 of IC50 (log10 of the value in µM)

> print(dat)
                    structure.smiles.string  measured.attribute  observed.result
1  CC(C)c1ccc(NC(=O)N2CCC[C@H]2C(=O)N2CC[C@H]3[C@H]2[C@H](C)C(=O)N3C(=O)C2CC2)cc1       log10 of IC50             1.49
2  CC(C)c1ccc(NC(=O)N2CCC[C@H]2C(=O)N2CC[C@H]3[C@H]2[C@H](C)C(=O)N3c2nc3cccnc3s2)cc1       log10 of IC50             0.56
3  CCOC(=O)c1ccc2nc(N3C(=O)[C@@H](C)[C@@H]4[C@@H]3CCN4C(=O)[C@@H]3CCCN3C(=O)Nc3ccc(C(C)C)cc3)sc2c1       log10 of IC50             0.71
4  CC(C)c1ccc(NC(=O)N2CCC[C@H]2C(=O)N2CC[C@H]3[C@H]2[C@H](C)C(=O)N3c2nc3ccc(CO)cc3s2)cc1       log10 of IC50            -0.28
5  CC(C)c1ccc(NC(=O)N2CCC[C@H]2C(=O)N2CC[C@H]3[C@H]2[C@H](C)C(=O)N3c2nc3ccc(OC(F)(F)F)cc3s2)cc1       log10 of IC50             0.72

----------
- EXPERIMENT NOTES: Clearance value in dog
- Format: ADME, organism-based, Canis lupus familiaris
- CONDITION NOTES: in vivo
MEASURED ATTRIBUTE: clearance (mL/min/kg)

> print(dat)
                    structure.smiles.string  measured.attribute  unit.abbrev  observed.result
1  CC(C)c1ccc(NC(=O)N2CCC[C@H]2C(=O)N2CC[C@H]3[C@H]2[C@H](C)C(=O)N3c2nc3ccccc3s2)cc1           clearance    mL/min/kg                8

----------
- TEST SYSTEM: Capsid scaffolding protein (Human cytomegalovirus (strain AD169) (HHV-5) (Human herpesvirus 5), UniProt P16753)
- Sequence (P16753 whole entry): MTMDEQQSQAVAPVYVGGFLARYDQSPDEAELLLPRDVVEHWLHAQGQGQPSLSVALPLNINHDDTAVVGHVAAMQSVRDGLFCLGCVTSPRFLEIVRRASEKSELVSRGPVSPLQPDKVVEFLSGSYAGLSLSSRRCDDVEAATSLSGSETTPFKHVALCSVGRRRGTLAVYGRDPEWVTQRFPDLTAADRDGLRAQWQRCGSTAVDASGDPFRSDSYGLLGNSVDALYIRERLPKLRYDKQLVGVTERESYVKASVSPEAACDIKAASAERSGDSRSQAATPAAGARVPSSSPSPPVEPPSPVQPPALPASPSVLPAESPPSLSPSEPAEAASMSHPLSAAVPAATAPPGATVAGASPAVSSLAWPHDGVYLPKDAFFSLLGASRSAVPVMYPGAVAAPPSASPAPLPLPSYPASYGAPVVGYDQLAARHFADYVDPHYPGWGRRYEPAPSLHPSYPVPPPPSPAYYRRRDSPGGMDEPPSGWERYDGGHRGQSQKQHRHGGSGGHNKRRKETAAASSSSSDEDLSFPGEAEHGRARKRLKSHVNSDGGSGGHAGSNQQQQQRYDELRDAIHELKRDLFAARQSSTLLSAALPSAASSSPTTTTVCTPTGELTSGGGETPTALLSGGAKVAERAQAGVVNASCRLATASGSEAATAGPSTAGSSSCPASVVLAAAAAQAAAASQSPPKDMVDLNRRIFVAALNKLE
- EXPERIMENT NOTES: Potency against human cytomegalovirus protease in HCMV pNA assay
pKi: −log10 of the molar value.
Catalogue of compounds with associated pKi
MEASURED ATTRIBUTE: pKi

> print(dat)
                    structure.smiles.string  measured.attribute  observed.result
1  CC(C)c1ccc(NC(=O)N2CCC[C@H]2C(=O)N2CC[C@H]3[C@H]2[C@H](C)C(=O)N3c2nc3ccccc3s2)cc1                 pKi             8.00
2  COc1ccc2nc(N3C(=O)[C@@H](C)[C@@H]4[C@@H]3CCN4C(=O)[C@@H]3CCCN3C(=O)Nc3ccc(C(C)C)cc3)sc2c1                 pKi             7.37
3  CC(C)c1ccc(NC(=O)N2CCC[C@H]2C(=O)N2CC[C@H]3[C@H]2[C@H](C)C(=O)N3C(=O)C2CC2)cc1                 pKi             8.70
4  CCCOc1ccc(S(=O)(=O)N2CCC[C@H]2C(=O)N2CC[C@H]3[C@H]2[C@H](C)C(=O)N3C(=O)C2CC2)cc1                 pKi             7.48
